Measured on: Jak2 tyrosine kinase (Homo sapiens (Human), UniProt O60674)
Sequence (O60674 whole entry): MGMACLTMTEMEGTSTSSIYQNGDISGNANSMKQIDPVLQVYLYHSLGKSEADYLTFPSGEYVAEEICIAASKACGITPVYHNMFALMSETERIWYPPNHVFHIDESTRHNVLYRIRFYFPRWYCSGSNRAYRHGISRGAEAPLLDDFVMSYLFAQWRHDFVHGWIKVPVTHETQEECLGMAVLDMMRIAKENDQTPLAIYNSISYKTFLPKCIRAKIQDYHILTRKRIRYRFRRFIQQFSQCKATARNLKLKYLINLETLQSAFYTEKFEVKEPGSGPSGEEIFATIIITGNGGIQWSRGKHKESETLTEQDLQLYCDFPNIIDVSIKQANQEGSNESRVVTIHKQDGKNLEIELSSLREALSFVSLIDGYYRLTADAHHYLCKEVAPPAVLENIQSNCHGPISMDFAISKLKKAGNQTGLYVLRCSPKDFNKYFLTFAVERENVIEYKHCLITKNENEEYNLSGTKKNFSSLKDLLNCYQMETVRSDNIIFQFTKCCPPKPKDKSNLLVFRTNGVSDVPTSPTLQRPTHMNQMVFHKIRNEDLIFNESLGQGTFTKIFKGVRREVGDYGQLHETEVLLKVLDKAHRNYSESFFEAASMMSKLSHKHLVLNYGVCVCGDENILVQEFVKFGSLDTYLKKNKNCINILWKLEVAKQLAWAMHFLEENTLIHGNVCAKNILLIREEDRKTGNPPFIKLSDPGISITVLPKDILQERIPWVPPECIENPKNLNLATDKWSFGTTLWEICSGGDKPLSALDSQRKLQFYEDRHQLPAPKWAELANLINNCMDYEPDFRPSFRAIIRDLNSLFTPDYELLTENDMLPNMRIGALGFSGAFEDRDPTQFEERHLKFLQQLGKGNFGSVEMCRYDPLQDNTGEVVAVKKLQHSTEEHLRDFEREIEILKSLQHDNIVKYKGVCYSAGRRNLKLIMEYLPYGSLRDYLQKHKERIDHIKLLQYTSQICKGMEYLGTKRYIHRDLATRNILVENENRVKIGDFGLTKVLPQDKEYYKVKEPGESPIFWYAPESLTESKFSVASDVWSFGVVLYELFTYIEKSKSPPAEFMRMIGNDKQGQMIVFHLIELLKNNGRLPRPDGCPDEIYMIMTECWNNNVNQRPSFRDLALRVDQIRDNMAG
Assay method text: Jak2 Tyrosine Kinase Assay
Assay type: biochemical
Condition notes: selectivity: Jak2 IC50 divided by Btk IC50
Reported metric: Ratio of Jak2/Btk IC50 values

Cc1c(-c2c(Cl)cc(C(N)=O)c3[nH]c4cc(C(C)(C)O)ccc4c23)cccc1-n1c(=O)cc2sccn2c1=O [Example 39]; 1200
Cc1c(-c2c(Cl)cc(C(N)=O)c3[nH]c4cc(C(C)(C)O)ccc4c23)cccc1-n1c(=O)cc2c(F)cccn2c1=O [Example 35]; 3200
Cc1c(-c2c(F)cc(C(N)=O)c3[nH]c4c(c23)CC[C@H](C(C)(C)O)C4)cccc1-n1c(=O)c2cccc(F)c2n(C)c1=O (atropisomer, axis not shown); 59000
Cc1c(-c2c(Cl)cc(C(N)=O)c3[nH]c4cc(C(C)(C)O)ccc4c23)cccc1-n1c(=O)cc2c(F)cccn2c1=O [Example 36]; 1600
Cc1c(-c2c(F)cc(C(N)=O)c3[nH]c4c(c23)CC[C@H](C(C)(C)O)C4)cccc1-n1c(=O)cc2c(F)cccn2c1=O (single isomer, unassigned) [Example 68]; 630
Cc1c(-c2c(Cl)cc(C(N)=O)c3[nH]c4cc(C(C)(C)O)ccc4c23)cccc1-n1c(=O)cc2c(F)cccn2c1=O [Example 34]; 440
